Values compiled from ChEMBL document CHEMBL4689842.

test system: U2OS; test: Multiplex assay against U2OS; assay type: toxicity, cell-based; details: human, 24 h, 1 µM, compound concentration 1 uM, replicate 2
OUTCOME_MEASURE: Population Normal (%)
I only need the number, in %, no unit after it.

Sample answers from the record:
COMPOUND | RESULT_UNIT | Population Normal (%)
CCc1ccc(OCc2ccccc2C(=O)Nc2ccc3nc(C)cc(N)c3c2)cc1.Cl | % | 82
CCCSc1nc(N[C@@H]2C[C@H]2c2ccc(F)c(F)c2)c2nnn([C@@H]3C[C@H](OCCO)[C@@H](O)[C@H]3O)c2n1 [TICAGRELOR] | % | 97
O=c1[nH]c2ccccc2n1C1CCN(Cc2ccc(-c3[nH]c4cc5ncnc5cc4nc3-c3ccccc3)cc2)CC1 | % | 96
COc1ccc(-c2ccc3ncc4c(c3c2)n(-c2ccc(N3CCNCC3)c(C(F)(F)F)c2)c(=O)n4C)cn1.O=C(O)/C=C\C(=O)O [BGT-226] | % | 69

In: // fetch Population Normal (%) given entry CNC(=O)Nc1ccc2c(c1)[C@@]1(CC2)OC(=O)N(CC(=O)N(Cc2ccc(F)cc2)[C@@H](C)C(F)(F)F)C1=O [A-486]
Out: 92

In: // fetch Population Normal (%) given entry C=CC(=O)Nc1cccc(Oc2nc(Nc3ccc(N4CCN(C)CC4)cc3OC)ncc2Cl)c1
Out: 85

In: // fetch Population Normal (%) given entry C=CC(=O)Nc1ccc2[nH]c(=O)n(C3CCN(Cc4ccc(-c5nc6cc[nH]c(=O)c6cc5-c5ccccc5)cc4)CC3)c2c1 [Borussertib]
Out: 92

In: // fetch Population Normal (%) given entry Cc1nc(N2CC[C@H](O)C2)ncc1-c1cc(C(F)(F)F)cc2[nH]ncc12
Out: 93

* * *

system: Fibroblast; assay: Incucyte cell viability with human fibroblast; format: toxicity, cell-based; details: 24 h, 10 µM, compound concentration 10 uM, replicate number 2, timepoint 24 hours; further: filed as whole numbers so only -1 and 0 and 1 occur
OUTCOME_MEASURE: Growth Rate
Write no unit; give the number alone.

MOLECULE | Growth Rate
CO[C@@H](C)c1c(Nc2ccc([C@H](N(C)C(=O)C3CCS(=O)(=O)CC3)C(F)(F)F)cc2)cnc2cc(Cl)nn12 | 1

In: Would you please give the reported Growth Rate of CC(C)Oc1ccc(-c2c[nH]cc2CN(C)CCN)cc1 with Fibroblast?
Out: 0

In: Would you please give the reported Growth Rate of Cl.O=C(O)c1cc(-c2ccc(C3CCNCC3)cc2)c2ccc(-c3ccc(C(F)(F)F)cc3)cc2c1 with Fibroblast?
Out: 0

In: Would you please give the reported Growth Rate of Cc1ccccc1C(=O)Nc1ccc(C(=O)N2CCCC(O)c3cc(Cl)ccc32)c(C)c1 (centres undefined) with Fibroblast?
Out: 0

* * *

Attribute: Population Healthy Nuclei (%)
test system: HEK-293T; test: Multiplex assay against HEK293T; format: toxicity, cell-based; conditions: human, 12 h, 10 µM, compound concentration 10 uM, replicate 2
Param answer (str): number followed by unit.

Sample answers from the record:
COMPOUND | RESULT
CCc1ccc(OCc2ccccc2C(=O)Nc2ccc3nc(C)cc(N)c3c2)cc1.Cl | 30%
O=c1cc(N2CCOCC2)oc2c(-c3cccc4c3sc3ccccc34)cccc12 | 7%
COc1cc(Nc2nccc(-c3cnn4nc(OC)ccc34)n2)cc(C(F)(F)F)c1 | 34%
CC(C)NC(=O)N1CC[C@H](NC2=Nc3cc(F)ccc3N(CC(F)F)c3ccc(Cl)cc32)C1 | 53%
Cc1ccccc1C(c1ccccc1C)N1C2CCC1CC(O)(c1ccccc1)C2 (configuration not stated) | 26%

In: // fetch Population Healthy Nuclei (%) given entry C=CC(=O)Nc1cccc(Sc2nc(Nc3ccc(N4CCN(C)CC4)cc3)ncc2Cl)c1
Out: 84%

In: // fetch Population Healthy Nuclei (%) given entry CNC(=O)Nc1ccc2c(c1)[C@@]1(CC2)OC(=O)N(CC(=O)N(Cc2ccc(F)cc2)[C@@H](C)C(F)(F)F)C1=O
Out: 85%

* * *

tested on: Fibroblast; assay: Multiplex assay against human fibroblast; assay type: toxicity, cell-based; details: 12 h, 1 µM, compound concentration 1 uM, replicate 1
OUTCOME_MEASURE: Population Pyknosed Nuclei (%)
I only need the number, in %, no unit after it.

COMPOUND | Population Pyknosed Nuclei (%)
C=CC(=O)Nc1cccc(Sc2nc(Nc3ccc(N4CCN(C)CC4)cc3)ncc2Cl)c1 | 53
CC(C)CC(=O)Nc1[nH]nc2c1CN(C(=O)C1CCN(C)CC1)C2(C)C [PHA-793887] | 18

Continue with the compound presented below.
In: // fetch Population Pyknosed Nuclei (%) given entry CCc1ccc(OCc2ccccc2C(=O)Nc2ccc3nc(C)cc(N)c3c2)cc1.Cl
Out: 35

* * *

test system: HEK-293T; assay: Multiplex assay against HEK293T; format: toxicity, cell-based; conditions: human, 48 h, 1 µM, compound concentration 1 uM, replicate 1
Answer no (0) if Population Mitochondria Different-Phenotype (%) is under 30%, and yes (1) if it is 30% or more.

Completed entries (count: 7):
MOLECULE | CLASS_ASSIGNMENT
O=C(c1cc2c(cc1F)OC(c1ccc(F)cc1)(c1ccc(Cl)cc1Cl)O2)N1CCOCC1 (stereo not drawn) | yes (1)
C[C@]12CC[C@@H]3c4ccc(O)cc4CC[C@H]3[C@@H]1CC[C@@H]2O [ESTRADIOL] | no (0)
CN1CCN(Cc2ccc(Nc3ncc(Cl)c(Nc4ccccc4S(=O)(=O)N(C)C)n3)cc2)CC1 [DUBERMATINIB] | no (0)
CC(C)NC(=O)N1CC[C@H](NC2=Nc3cc(F)ccc3N(CC(F)F)c3ccc(Cl)cc32)C1 | yes (1)
Cc1cccc(CN2CCN(C(c3ccccc3)c3ccc(Cl)cc3)CC2)c1.Cl.Cl (stereo not drawn) | yes (1)
COc1ccccc1CN[C@H]1C2CCN(CC2)[C@H]1C(c1ccccc1)c1ccccc1 [CP-96345] | yes (1)
Cl.O=C(O)c1cc(-c2ccc(C3CCNCC3)cc2)c2ccc(-c3ccc(C(F)(F)F)cc3)cc2c1 | no (0)

In: hey, is Population Mitochondria Different-Phenotype (%) for this one >= 30%? COc1cc2ncn(-c3cc(OCc4ccccc4C(F)(F)F)c(C(N)=O)s3)c2cc1OC [GW843682X]
Out: yes (1)

* * *

Attribute: Growth Rate
system: Fibroblast; assay: Incucyte cell viability with human fibroblast; assay type: toxicity, cell-based; conditions: 12 h, 10 µM, compound concentration 10 uM, replicate number 1, timepoint 12 hours; further: filed as whole numbers so only -1 and 0 and 1 occur
Write no unit; give the number alone.

Sample answers from the record:
COMPOUND | Growth Rate
Cc1cccc(CN2CCN(C(c3ccccc3)c3ccc(Cl)cc3)CC2)c1.Cl.Cl (stereo not drawn) | 1
CN(C)C(=O)/C(C#N)=C/c1ccc(-c2nc3cnc4c(ccn4C)c3n2C2CCCCC2)o1 | 0
S=C=Nc1cccc(NC(=S)NCCCCNC(=S)Nc2cccc(N=C=S)c2)c1 | 0
O=c1[nH]c2ccccc2n1C1CCN(Cc2ccc(-c3[nH]c4cc5ncnc5cc4nc3-c3ccccc3)cc2)CC1 | 1
COc1cc2ncn(-c3cc(OCc4ccccc4C(F)(F)F)c(C(N)=O)s3)c2cc1OC [GW843682X] | 0
CC(C)NC(=O)N1CC[C@H](NC2=Nc3cc(F)ccc3N(CC(F)F)c3ccc(Cl)cc32)C1 | 0

In: // fetch Growth Rate given entry C[C@]1(O)C[C@@H](c2nc(-c3ccc4ccc(-c5ccccc5)nc4c3)c3c(N)nccn32)C1
Out: 1

In: // fetch Growth Rate given entry C=CC(=O)Nc1cccc(Oc2nc(Nc3ccc(N4CCN(C)CC4)cc3OC)ncc2Cl)c1
Out: 0

In: // fetch Growth Rate given entry COC(=O)C(Cc1ccc(OCCn2c(=O)sc3cc(C(=O)c4ccccc4)ccc32)cc1)C(=O)OC
Out: 1

In: // fetch Growth Rate given entry CCOC(=O)CCNc1cc(N2CCc3ccccc3CC2)nc(-c2cccnc2)n1
Out: 1

In: // fetch Growth Rate given entry CC(C)CC(=O)Nc1[nH]nc2c1CN(C(=O)C1CCN(C)CC1)C2(C)C
Out: 0

In: // fetch Growth Rate given entry Cc1ccccc1C(=O)Nc1ccc(C(=O)N2CCCC(O)c3cc(Cl)ccc32)c(C)c1 (stereo not drawn)
Out: 1

In: // fetch Growth Rate given entry C=CC(=O)Nc1cccc(Sc2nc(Nc3ccc(N4CCN(C)CC4)cc3)ncc2Cl)c1
Out: 0

In: // fetch Growth Rate given entry C[C@H](c1ccc(F)cc1)N(Cc1cccc(C(=O)O)c1)C(=O)c1cnc2ccccc2c1
Out: 1

In: // fetch Growth Rate given entry O=C(Nc1ccc(Oc2ccc(F)cc2)cc1)N1CCc2ncccc2[C@H]1c1ccc(F)cc1
Out: 1

In: // fetch Growth Rate given entry Cc1nc(N2CC[C@H](O)C2)ncc1-c1cc(C(F)(F)F)cc2[nH]ncc12
Out: 0

In: // fetch Growth Rate given entry CCOC(=O)c1cc2cc(-c3cc(C(=O)NCc4ccc(C(=O)O)cc4)nn3C)ccc2[nH]1
Out: 1

In: // fetch Growth Rate given entry C[C@]12CC[C@@H]3c4ccc(O)cc4CC[C@H]3[C@@H]1CC[C@@H]2O
Out: 0
